Test: chemical genetic growth profiling, strain panel (AID 1159580);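 note: tested at 20 µM; growth read once vehicle control cultures reached saturation at 30 °C; 1 = growth at the plate median or of vehicle wells; lower values mean less growth of the strain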
Details: S. cerevisiae deletion strains, growth OD, locus YER110C, hits give low values
Hit rate of the full screen: of about 5,500 compounds, about 2,000 (36%) were called active. About 18% were inconclusive and are not listed. Some of the results follow.

>  <molecule>
C[C@]12CCC3C(CC[C@H]4C[C@@H](Cl)CC[C@]34C)C1CCC2=O (stereo partly specified)

>  <normalized growth>
1.02

$$$$
>  <molecule>
Cc1c(N(C)CS(=O)(=O)O)c(=O)n(-c2ccccc2)n1C

>  <normalized growth>
0.994

$$$$
>  <molecule>
CCNc1nc(Cl)nc(NC(C)C)n1

>  <normalized growth>
1.02

$$$$
>  <molecule>
c1ccc2c(c1)[nH]c1cnccc12

>  <normalized growth>
0.964

$$$$
>  <molecule>
C=C(C)c1cc2cc(C(C)=O)c(O)cc2o1

>  <normalized growth>
0.894

$$$$
>  <molecule>
C[C@]12CCC3C(CC[C@H]4C[C@@H](O)CC[C@]34C)C1CCC2=O (stereo partly specified)

>  <normalized growth>
1.03

$$$$
